- targetOrSystem: T1, human chemokine (C-C motif) receptor 8 (CCR8) (human, UniProt P51685 1-355)
- T1 construct: On human peripheral blood lymphocytes / PBMC (native) or on human CCR8 GFP-transfected Ba/F3 cells; also called hCCR8; human CCR8
- T1 sequence (P51685 whole entry): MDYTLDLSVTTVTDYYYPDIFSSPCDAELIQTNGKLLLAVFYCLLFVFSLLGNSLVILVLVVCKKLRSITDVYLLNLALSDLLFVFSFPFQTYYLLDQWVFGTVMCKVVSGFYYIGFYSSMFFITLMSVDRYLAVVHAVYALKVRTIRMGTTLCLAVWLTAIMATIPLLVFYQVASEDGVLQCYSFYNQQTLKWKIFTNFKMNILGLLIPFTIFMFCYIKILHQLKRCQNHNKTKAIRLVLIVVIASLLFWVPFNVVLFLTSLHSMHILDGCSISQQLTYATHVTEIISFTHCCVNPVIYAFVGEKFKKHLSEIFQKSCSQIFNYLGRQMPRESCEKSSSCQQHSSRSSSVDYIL
- assayExplanation: flow cytometry blocking, PBMC CCR8+ CD4+ cells; competitor PE-AB2 (its MFI is read)
Everything with MFI lower than 400 is Condition not met; everything else, including exactly 400, is Condition met.

# check: MFI of AB2 (antibody, V domains shown, Hybridoma monoclonal; also called antibody 2; clone 2) VH: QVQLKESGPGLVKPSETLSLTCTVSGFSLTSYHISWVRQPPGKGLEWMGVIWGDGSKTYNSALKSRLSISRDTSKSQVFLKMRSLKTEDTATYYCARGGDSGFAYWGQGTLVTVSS VL: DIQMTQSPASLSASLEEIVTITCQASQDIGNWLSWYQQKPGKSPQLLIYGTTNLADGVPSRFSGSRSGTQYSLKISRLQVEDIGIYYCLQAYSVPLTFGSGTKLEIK is greater than or equal to 400
Condition met

# check: MFI of AB12 (antibody, V domains shown, Hybridoma monoclonal; also called antibody 12; clone 12) VH: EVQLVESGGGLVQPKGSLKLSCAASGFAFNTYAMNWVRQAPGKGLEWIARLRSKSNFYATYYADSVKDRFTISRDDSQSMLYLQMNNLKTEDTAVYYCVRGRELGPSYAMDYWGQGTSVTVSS VL: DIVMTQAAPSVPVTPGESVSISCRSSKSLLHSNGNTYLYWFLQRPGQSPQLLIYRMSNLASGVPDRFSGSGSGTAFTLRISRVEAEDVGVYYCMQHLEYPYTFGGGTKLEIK is greater than or equal to 400
Condition met

# check: MFI of AB5 (antibody, V domains shown, Hybridoma monoclonal; also called antibody 5; clone 5) VH: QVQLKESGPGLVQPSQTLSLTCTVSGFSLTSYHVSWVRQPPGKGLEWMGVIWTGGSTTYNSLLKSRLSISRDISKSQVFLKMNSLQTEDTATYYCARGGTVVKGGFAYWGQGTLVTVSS VL: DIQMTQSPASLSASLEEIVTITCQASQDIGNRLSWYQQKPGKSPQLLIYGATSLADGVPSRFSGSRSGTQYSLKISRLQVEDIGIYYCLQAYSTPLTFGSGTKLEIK is greater than or equal to 400
Condition not met

# check: MFI of AB11 (antibody, V domains shown, Hybridoma monoclonal; also called antibody 11; clone 11) VH: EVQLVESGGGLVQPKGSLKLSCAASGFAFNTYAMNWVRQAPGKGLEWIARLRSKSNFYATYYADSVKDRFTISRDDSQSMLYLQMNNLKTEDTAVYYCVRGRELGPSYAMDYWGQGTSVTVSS VL: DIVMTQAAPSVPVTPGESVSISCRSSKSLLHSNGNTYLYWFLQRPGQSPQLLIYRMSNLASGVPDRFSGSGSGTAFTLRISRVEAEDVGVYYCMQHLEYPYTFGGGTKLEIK is greater than or equal to 400
Condition met

# check: MFI of AB4 (antibody, V domains shown, Hybridoma monoclonal; also called antibody 4; clone 4) VH: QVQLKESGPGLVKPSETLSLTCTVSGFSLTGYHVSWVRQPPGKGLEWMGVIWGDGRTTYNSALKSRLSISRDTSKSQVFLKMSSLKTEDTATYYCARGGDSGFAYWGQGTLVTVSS VL: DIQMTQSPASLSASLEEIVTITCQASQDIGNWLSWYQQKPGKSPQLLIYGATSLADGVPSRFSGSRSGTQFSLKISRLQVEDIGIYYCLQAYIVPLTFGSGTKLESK is greater than or equal to 400
Condition not met

# check: MFI of AB1 (antibody, V domains shown, Hybridoma monoclonal (mice or rats immunised); Used purified and PE-conjugated; also called antibody 1; clone 1) VH: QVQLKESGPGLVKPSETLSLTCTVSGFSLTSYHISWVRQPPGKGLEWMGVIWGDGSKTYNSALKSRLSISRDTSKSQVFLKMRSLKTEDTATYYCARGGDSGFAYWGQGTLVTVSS VL: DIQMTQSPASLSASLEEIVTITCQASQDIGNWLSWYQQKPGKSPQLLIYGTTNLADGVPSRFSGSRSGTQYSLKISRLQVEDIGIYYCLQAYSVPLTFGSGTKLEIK is greater than or equal to 400
Condition not met

# check: MFI of AB10 (antibody, V domains shown, Hybridoma monoclonal; also called antibody 10; clone 10) VH: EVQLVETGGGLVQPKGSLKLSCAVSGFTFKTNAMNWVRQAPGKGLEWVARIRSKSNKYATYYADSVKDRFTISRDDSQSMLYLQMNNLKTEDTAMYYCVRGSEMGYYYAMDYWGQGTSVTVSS VL: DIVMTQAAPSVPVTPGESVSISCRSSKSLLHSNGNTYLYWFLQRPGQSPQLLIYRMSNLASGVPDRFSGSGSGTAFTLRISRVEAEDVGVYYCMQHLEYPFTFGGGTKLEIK is greater than or equal to 400
Condition met

Reference source for all entries: patent US20240360228A1
